Data origin: patent US20120114652A1

Target: T1, rat PAI-1 (rat, UniProt P20961 24-402)
T1 sequence: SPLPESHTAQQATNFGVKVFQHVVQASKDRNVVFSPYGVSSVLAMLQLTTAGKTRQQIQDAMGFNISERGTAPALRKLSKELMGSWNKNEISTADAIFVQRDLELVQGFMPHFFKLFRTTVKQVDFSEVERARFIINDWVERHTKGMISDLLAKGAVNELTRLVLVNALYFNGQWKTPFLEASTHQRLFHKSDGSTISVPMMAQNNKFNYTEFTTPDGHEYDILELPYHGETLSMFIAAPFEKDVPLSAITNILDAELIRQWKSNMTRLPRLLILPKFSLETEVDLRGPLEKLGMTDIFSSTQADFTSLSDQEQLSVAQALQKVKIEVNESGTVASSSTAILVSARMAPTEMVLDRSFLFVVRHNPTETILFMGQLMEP
Experiment: cell-based or functional assay
Result Type: IC50 ratio rat/human
// no unit string in output, number only

The examples below pair each entry with its known result.
>  <Binder>
Antibody 25, scFv (scFv, V domains shown) VH: QVQLQQSGAEVKKPGSSVKVSCKASGGTFSSYAISWVRQAPGQGLEWMGGIIPTFGTANYAQKFQGRVTITADESTSTAYMELSGLRSEDTAVYYCARERRQWLEGHFDYWGQGTPVTVSS VL: DIQMTQSPSFLSASIGDRVTITCRASESIYHELAWYQQKPGKAPKLLIYKASSLASGAPSRFSGSGSGTAFTLTISSLQPDDFATYYCQQYSNYPLTFGGGTKLEIK

>  <Numeric Readout>
24.6

$$$$
>  <Binder>
Antibody 23, scFv (scFv, V domains shown) VH: QVQLQQSGAEVKKPGSSVKVSCKASGGTFSSYAISWVRQAPGQGLEWMGGIIPTFGTANYAQKFQSRVTITADESTSTAYMELSGLRSEDTAVYYCAREKRQWLEGHFDYWGRGTPVTVSS VL: DIQMTQSPSFLSASIGDRVTITCRASEGIYHSLAWYQQKPGKAPKLLIYRASSLASGAPSRFSGSGSGTDFTLTISSLQPDDFATYYCQQYSNYPLTFGGGTKLEIK

>  <Numeric Readout>
229

$$$$

Now for another entry.
query: Given the binder Antibody 19, scFv (scFv, V domains shown) VH: QVQLQQSGAEVKKPGSSVKVSCKASGGTFSSYAISWVRQAPGQGLEWMGGIIPIFDTANYAQKFQGRVTITADESTSTAYMELSGLRSEDTAVYYCARERRQWLEGHFDYWGRGTPVTVSS VL: DIRMTQSPSFLSASIGDRVTITCRASEGIYHELAWYQQKPGKAPKLLIYRASSLASGAPSRFSGSGSGTEFTLTISSLQPDDFATYYCQQYSNYPLTFGGGTKLEIK , what is its reported IC50 ratio rat/human?
result: 0.3
